Every entry's value here was drawn from PubChem BioAssay.

Experiment: TOR pathway GLN3 branch reporter MEP2-GFP changes – S. cerevisiae, multiplex flow cytometry, primary screen (AID 1867);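 note: median GFP channel fluorescence of barcode-gated MEP2-GFP cells measured by flow cytometry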
Settings: S. cerevisiae MEP2-GFP strain, 3 h, at 10 µM, hits give high values, 100% means same as DMSO wells
Records with an inconclusive call do not appear. Activity calls are given as the source filed them.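 Rule for the calls: active = GFP response, as percent of the DMSO control, above the screen-wide mean plus 3 SD, about 139; inconclusive = no response measured because the compound's own fluorescence interfered; inactive = the rest.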
endpoint.label: GFP response vs DMSO

[[record]]
molecule = "Cc1ccc(NC(=O)CSc2nc(O)c(Cc3ccccc3)c(=O)n2-c2ccccc2)cc1"
measurement = "105% (inactive)"

[[record]]
molecule = "CCn1c(C)cc2c(c1=O)C(c1ccccc1)C(C(=O)OC)=C(N)O2 (centres undefined)"
measurement = "105% (inactive)"

[[record]]
molecule = "O=C(O)c1ccc(N2C(=O)/C(=C\\c3ccccc3)N=C2c2ccccc2)cc1"
measurement = "106% (inactive)"

[[record]]
molecule = "COc1ccc(Cc2noc(CN(C)CC3(N4CCOCC4)CCCCC3)n2)cc1OC"
measurement = "99.7% (inactive)"

[[record]]
molecule = "Clc1ccc(CCNc2ncnc3nc[nH]c23)cc1"
measurement = "108% (inactive)"

[[record]]
molecule = "CCC1(c2ccccc2)NC(=S)N(c2ccc(C)c(C)c2)N1 (centres undefined)"
measurement = "106% (inactive)"

[[record]]
molecule = "CCC(C)n1ncn(-c2ccc(N3CCN(c4ccc(OCC5COC(Cn6cncn6)(c6ccc(Cl)cc6Cl)O5)cc4)CC3)cc2)c1=O (centres undefined)"
measurement = "110% (inactive)"

[[record]]
molecule = "Nc1cnn(C2OC(CO)C(O)C2O)c(=O)n1 (centres undefined)"
measurement = "108% (inactive)"

[[record]]
molecule = "CCN(CC)C(=O)c1sc(NC(=O)c2c(OC)cccc2OC)c(C#N)c1C"
measurement = "98.7% (inactive)"

[[record]]
molecule = "Cc1ccccc1C(=O)NNc1ncnc2c1cnn2C"
measurement = "103% (inactive)"

[[record]]
molecule = "COc1cc2c(cc1NCc1ccc3c(c1)OCO3)oc1ccccc12"
measurement = "133% (inactive)"

[[record]]
molecule = "COc1ccc(NC(=O)C2OC3OC(C)(C)OC3C3OC(C)(C)OC23)cc1 (centres undefined)"
measurement = "98.6% (inactive)"

[[record]]
molecule = "CC(=O)N/C(=C/c1ccc2c(c1)OCO2)C(=O)NCCO"
measurement = "106% (inactive)"

[[record]]
molecule = "COc1cc2c(cc1OC)/C(=C/c1ccc(Cl)cc1)C(=O)OC2"
measurement = "108% (inactive)"

[[record]]
molecule = "CC1(C)Oc2ccc(C#N)cc2[C@@H](N2CCCC2=O)[C@@H]1O"
measurement = "115% (inactive)"

[[record]]
molecule = "O=C(Nc1ccc(C(=O)NC2CCCCC2)cc1)c1cccnc1"
measurement = "101% (inactive)"

[[record]]
molecule = "CC(C)(C)C(=O)Nc1cccc(OC(F)(F)C(F)Cl)c1 (centres undefined)"
measurement = "106% (inactive)"

[[record]]
molecule = "O=C(/C=C/c1ccccc1)NCC1(c2ccccc2)CCOCC1"
measurement = "104% (inactive)"

[[record]]
molecule = "COC(=O)CN1C(=S)N(c2ccc(F)cc2)C(=O)C1CC(=O)Nc1ccccc1 (centres undefined)"
measurement = "101% (inactive)"

[[record]]
molecule = "CO[C@H]1C=CO[C@@]2(C)Oc3c(C)c(O)c4c(O)c(c(C=NN5CCN(C)CC5)c(O)c4c3C2=O)NC(=O)C(C)=CC=C[C@H](C)[C@H](O)[C@@H](C)[C@@H](O)[C@@H](C)[C@H](OC(C)=O)[C@@H]1C"
measurement = "127% (inactive)"

[[record]]
molecule = "O=C1CC(c2ccc(OCCCCCOc3ccc(C4CC(=O)NC4=O)cc3)cc2)C(=O)N1 (centres undefined)"
measurement = "98.3% (inactive)"

[[record]]
molecule = "Cc1ccc2c(c1)c(=O)c1c3n2CCN(C(=O)CCl)C3CC1 (centres undefined)"
measurement = "102% (inactive)"

[[record]]
molecule = "O=C(NCCO)c1ccc2[nH]c3ccccc3c2c1"
measurement = "104% (inactive)"

[[record]]
molecule = "Cc1ccc(Cl)c(Nc2ccccc2C(=O)O)c1Cl"
measurement = "103% (inactive)"

[[record]]
molecule = "Cc1cc(OC(=O)CNC(=O)OC(C)(C)C)c2c(C)cc(=O)oc2c1"
measurement = "105% (inactive)"

[[record]]
molecule = "c1ccc(-c2ccccn2)nc1"
measurement = "112% (inactive)"

[[record]]
molecule = "O=C(Cc1ccccc1)NCC(=O)OCC(=O)c1ccccc1Cl"
measurement = "112% (inactive)"

[[record]]
molecule = "CCn1c(/C=C/c2ccccc2)nc2ccccc2c1=O"
measurement = "111% (inactive)"

[[record]]
molecule = "CC(=O)CCc1c(C)c2cccc(C)c2[nH]c1=O"
measurement = "99.6% (inactive)"

[[record]]
molecule = "COc1cccc(CN2C(=O)N(C(C)C)C(N(O)C(=O)NC(C)C)C2(C)C)c1OC (centres undefined)"
measurement = "103% (inactive)"

[[record]]
molecule = "NC(=O)C1CCCNC1 (centres undefined)"
measurement = "98.7% (inactive)"

[[record]]
molecule = "CC(C)(CO)CNC(=O)CC1C(=O)NCCN1CC(c1ccccc1)c1ccccc1 (centres undefined)"
measurement = "106% (inactive)"

[[record]]
molecule = "CC(NC(=O)c1cccnc1)C(=O)O (centres undefined)"
measurement = "98.5% (inactive)"

[[record]]
molecule = "COc1ccc(CN2CCC(=O)NC2=O)cc1"
measurement = "105% (inactive)"

[[record]]
molecule = "CCN(CC)CCOC(=O)C(c1ccccc1)c1ccccc1"
measurement = "108% (inactive)"

[[record]]
molecule = "CC[C@]1(O)CC2CN(CCc3c([nH]c4ccccc34)[C@@](C(=O)OC)(c3cc4c(cc3OC)N(C=O)[C@H]3[C@@](O)(C(=O)OC)[C@H](OC(C)=O)[C@]5(CC)C=CCN6CC[C@]43[C@@H]65)C2)C1 (some centres undefined)"
measurement = "98.5% (inactive)"

[[record]]
molecule = "Cc1ccc2c(CC(=O)O)coc2c1"
measurement = "94.1% (inactive)"

[[record]]
molecule = "CC(=O)OC(C)C[N+](C)(C)C (centres undefined)"
measurement = "102% (inactive)"

[[record]]
molecule = "COc1ccccc1Oc1c(C)oc2c(CN3CCN(CCO)CC3)c(O)ccc2c1=O"
measurement = "101% (inactive)"

[[record]]
molecule = "COc1cccc(N2C(=O)CC(c3c[nH]c4ccccc34)C2=O)c1 (centres undefined)"
measurement = "103% (inactive)"

[[record]]
molecule = "COc1cccc(-n2c(C)c3c(OC)cccc(=O)c3c2C)c1"
measurement = "140% (active)"

[[record]]
molecule = "COc1cc(NC(=O)COc2ccccc2)c(OC)cc1NC(C)=O"
measurement = "133% (inactive)"

[[record]]
molecule = "c1ccc(Cn2nnc3cnccc32)cc1"
measurement = "101% (inactive)"

[[record]]
molecule = "Nc1ccc(-c2nc3ncccc3o2)c(Cl)c1"
measurement = "103% (inactive)"

